- Tested on: HCT116 MTAP-/-
- measurementNotes: Inhibition of cellular proliferation (Cell Titer Glo), HCT116 MTAP-/-
- Type: cell-based, human
- conditionDescription: Homo sapiens, HCT-116, 96 h, Table 5a, 4 days, read-out: 4 Day Relative Growth Inhibition (MTAP −/−)
- Description: Test compound impact on cancer cell growth was assessed by treating cancer cells with compound for 4 days and then measuring proliferation using an ATP-based cell proliferation readout (Cell Titer Glo, Promega Corporation). In a typical assay an isogenic pair of HCT116 human colon carcinoma cell lines which vary only in MTAP deletion status (HCT116 MTAP+/+ and HCT116 MTAP−/−) were plated in 96-well dishes at appropriate cell density. […]
quantity: IC50

Sample answers from the record:
[
  {
    "smilesStructure": "[2H]C([2H])([2H])Oc1ccc(N2C(=O)N(c3ccc4nn(C([2H])([2H])[2H])cc4c3)Cc3cnc(NCC(F)(F)F)nc32)cc1",
    "studyTarget": "HCT116 MTAP-/-",
    "IC50": "< 100 nM"
  },
  {
    "smilesStructure": "COc1ccc(N2C(=O)N(c3ccc4nccnc4c3)Cc3cnc(NCC(F)(F)F)nc32)cc1",
    "studyTarget": "HCT116 MTAP-/-",
    "IC50": "100 to 1000 nM"
  },
  {
    "smilesStructure": "CCOc1ccc2c(n1)N(c1ccc(OC)cc1)C(=O)N(c1ccc3c(c1)N(C)CCO3)C2",
    "studyTarget": "HCT116 MTAP-/-",
    "IC50": "100 to 1000 nM"
  }
]

In the following, a different compound is considered.
// query For the record `Cn1cnc2ccc(N3Cc4cnc(NCC(F)(F)F)nc4N(c4ccc(-c5nc[nH]n5)cc4)C3=O)cc21` , what value of IC50 is listed for HCT116 MTAP-/-?
// result 100 to 1000 nM

---

- Test system: HCT116 MTAP-/-
- measurementNotes: Inhibition of cellular proliferation (Cell Titer Glo), HCT116 MTAP-/-
- Format: cell-based, human
- conditionDescription: Homo sapiens, HCT-116, 96 h, Table 5a, 4 days, read-out: 4 Day Relative Growth Inhibition (MTAP −/−)
Entries and their measured IC50 follow.

Sample records with IC50:
[
  {
    "smilesStructure": "COc1ccc(N2Cc3cnc(NCC(F)(F)F)nc3N(c3ccc(C(F)(F)F)cc3)C2=O)cc1",
    "IC50": "> 1000 nM"
  },
  {
    "smilesStructure": "Cn1cc2cc(N3Cc4ccc(OCC(F)F)nc4N(c4ccc5[nH]cnc5c4)C3=O)ccc2n1",
    "IC50": "100 to 1000 nM"
  },
  {
    "smilesStructure": "COc1ccc(N2C(=O)N(c3ccc(=O)n(C)c3)Cc3cnc(NCC(F)(F)F)nc32)cc1",
    "IC50": "> 1000 nM"
  },
  {
    "smilesStructure": "CCOc1ccc2c(c1)N(c1ccc(OC(F)F)cc1)C(=O)N(c1ccc3nn(C)cc3c1)C2",
    "IC50": "100 to 1000 nM"
  }
]

Now take the following molecule into account.
// query Please report the recorded IC50 for `COc1ccc(N2C(=O)N(c3cn[nH]c3)Cc3cnc(NCC(F)(F)F)nc32)cc1` .
// result > 1000 nM

---

- studyTarget: MAT2A homodimer (Homo sapiens)
- Construct: inferred from the Ni sepharose purification and imidazole elution; made in house; host or cells: SF9 insect cells, recombinant baculovirus (Bac to Bac, pFASTBAC1)
- measurementNotes: MAT2A biochemical assay (liberated phosphate, PiColorLock Gold)
- conditionDescription: Table 5a; MAT2A biochemical assay; read-out: Enzyme Inhibition
pIC50: −log10 of the molar value.
pIC50 by entry:

Answered cases to consult:
[
  {
    "smilesStructure": "COc1ccc(N2C(=O)N(c3ccc(OC)cn3)Cc3cnc(NCC(F)(F)F)nc32)cc1",
    "quantity": "pIC50",
    "experimentalValue": "6.00 to 7.00"
  },
  {
    "smilesStructure": "Cn1cc2cc(N3Cc4ccc(OCC(F)F)nc4N(c4ccc5scnc5c4)C3=O)ccc2n1",
    "quantity": "pIC50",
    "experimentalValue": "> 7.00"
  },
  {
    "smilesStructure": "Cn1cnc2ccc(N3Cc4ccc(OCC(F)F)nc4N(c4ccc(OC(F)F)cc4)C3=O)cc21",
    "quantity": "pIC50",
    "experimentalValue": "> 7.00"
  },
  {
    "smilesStructure": "CCOc1ccc2c(n1)N(c1ccc(C)nc1)C(=O)N(c1ccc3nn(C)cc3c1)C2",
    "quantity": "pIC50",
    "experimentalValue": "6.00 to 7.00"
  },
  {
    "smilesStructure": "CCOc1ccc2c(n1)N(c1ccc(OC(F)F)cc1)C(=O)N(c1ccc3nnn(C)c3c1)C2",
    "quantity": "pIC50",
    "experimentalValue": "> 7.00"
  },
  {
    "smilesStructure": "CCOc1ccc2c(n1)N(c1ccc(OC(F)(F)F)nc1)C(=O)N(c1ccc3nn(C)cc3c1)C2",
    "quantity": "pIC50",
    "experimentalValue": "> 7.00"
  }
]

// query Suppose we examine the molecule `COc1ccc(N2C(=O)N(c3ccc(OC)nc3)Cc3cnc(NCC(F)(F)F)nc32)cc1` ; what pIC50 value has been reported?
// result 6.00 to 7.00

// query Could you tell me which pIC50 is on file for `[2H]C([2H])([2H])Oc1ccc(N2C(=O)N(c3ccc4nn(C)cc4c3)Cc3ccc(OCC(F)F)nc32)cc1` ?
// result > 7.00

// query What value of measured pIC50 is listed for `[2H]C([2H])([2H])Oc1ccc(N2C(=O)N(c3ccc4nn(C)cc4c3)Cc3cnc(NCC(F)(F)F)nc32)cc1` ?
// result > 7.00

// query Which pIC50 is listed for `COc1ccc(N2Cc3cnc(NCC(F)(F)F)nc3N(c3ccc(C4(O)CC4)cc3)C2=O)cc1` ?
// result 6.00 to 7.00

// query Suppose we examine the molecule `COc1ccc(N2Cc3cnc(NCC4CC4)nc3N(c3ccc(O)cc3)C2=O)cc1` ; what pIC50 value has been reported?
// result 5.00 to 6.00

// query Record request: pIC50 value, item `CCSc1ccc2c(n1)N(c1ccc(OC)cc1)C(=O)N(c1ccc3nn(C)cc3c1)C2`
// result > 7.00

// query What value of measured pIC50 is listed for `[2H]C([2H])([2H])Oc1ccc(N2C(=O)N(c3ccc4nc(C)n(C)c4c3)Cc3ccc(OC(C)C)nc32)cc1` ?
// result > 7.00

---

- studyTarget: MAT2A homodimer (Homo sapiens, UniProt P31153)
- Construct: inferred from the Ni sepharose purification and imidazole elution; made in house; host or cells: SF9 insect cells, recombinant baculovirus (Bac to Bac, pFASTBAC1)
- Sequence (P31153 whole entry): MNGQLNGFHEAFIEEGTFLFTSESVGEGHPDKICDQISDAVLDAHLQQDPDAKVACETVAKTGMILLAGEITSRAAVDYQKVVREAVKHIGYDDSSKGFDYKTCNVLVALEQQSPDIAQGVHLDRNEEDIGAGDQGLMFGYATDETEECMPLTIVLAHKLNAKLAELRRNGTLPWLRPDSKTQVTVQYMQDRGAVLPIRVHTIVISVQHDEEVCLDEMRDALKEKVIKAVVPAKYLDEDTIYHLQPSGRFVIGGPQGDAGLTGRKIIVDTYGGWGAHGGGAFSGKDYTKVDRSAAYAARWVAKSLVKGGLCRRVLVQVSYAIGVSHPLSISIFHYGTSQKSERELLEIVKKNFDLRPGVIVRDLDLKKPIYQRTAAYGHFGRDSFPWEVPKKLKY
- measurementNotes: MAT2A biochemical assay (liberated phosphate, PiColorLock Gold)
- conditionDescription: Table 5a; MAT2A biochemical assay; read-out: Enzyme Inhibition
quantity: IC50

Answered cases to consult:
[
  {
    "molecule": "O=C1N(c2ccc3ncccc3c2)Cc2cnc(NCC(F)(F)F)nc2N1c1ccc(C2CC2)cc1",
    "IC50": "< 100 nM"
  },
  {
    "molecule": "COc1ccc(N2C(=O)N(c3ccc4nn(C)cc4c3)Cc3c(C)nc(NCC(F)(F)F)nc32)cc1",
    "IC50": "< 100 nM"
  }
]

Continue with the molecule presented below.
// query Quick check: IC50 of [2H]C([2H])([2H])Oc1ccc(N2C(=O)N(c3ccc4nn(C)cc4c3)C(C)c3ccc(OCC(F)F)nc32)cc1 (stereo not drawn) ?
// result 100 to 1000 nM

---

- Tested on: HCT116 MTAP-/-
- measurementNotes: Inhibition of cellular proliferation (Cell Titer Glo), HCT116 MTAP-/-
- Assay type: cell-based, human
- conditionDescription: Homo sapiens, HCT-116, 96 h, Table 5a, 4 days, read-out: 4 Day Relative Growth Inhibition (MTAP −/−)
pIC50: −log10 of the molar value.
# pIC50 listing for each entry below

Below, each entry is followed by its recorded pIC50 result.
[
  {
    "smilesStructure": "Cn1cc2cc(N3Cc4ccc(OC5CC5)nc4N(c4ccc(OC(F)F)cc4)C3=O)ccc2n1",
    "experimentalValue": "6.00 to 7.00"
  },
  {
    "smilesStructure": "Cn1cc2cc(N3Cc4ccc(OCC(F)F)nc4N(c4ccc5oc(N)nc5c4)C3=O)ccc2n1",
    "experimentalValue": "> 7.00"
  }
]

Read the next record carefully.
// query I would be grateful if you could share the reported pIC50 for `CO[C@H]1CC[C@H](N2C(=O)N(c3ccc4nn(C)cc4c3)Cc3ccc(OCC(F)F)nc32)CC1` .
// result 6.00 to 7.00
